B1: TPR t1 (parent)
chain: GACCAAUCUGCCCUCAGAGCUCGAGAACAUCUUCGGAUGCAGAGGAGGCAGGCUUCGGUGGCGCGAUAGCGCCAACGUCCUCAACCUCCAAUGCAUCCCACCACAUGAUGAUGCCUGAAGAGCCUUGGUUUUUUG

Variants of: B1
assay.info: polymerase ribozyme fitness, log enrichment relative to wild type (log ratio); higher = more active; in vitro selection for triplet polymerase activity
Rule: polymerase ribozyme fitness (log ratio) under -4 gives No, otherwise Yes.

{"columns": ["variant.designation", "class"],
 "data": [
  ["A50C G77U C115G", "Yes"],
  ["G61C U125G", "Yes"],
  ["G17A C70U", "Yes"],
  ["C86A C101U", "Yes"],
  ["A5C C115U G120A G122A U134G", "No"],
  ["C8A U9G C62A", "Yes"],
  ["G69C C97U", "Yes"],
  ["C53G U78C C80U A91G U92C C124A", "No"],
  ["A91U A111C", "Yes"],
  ["C4A A18C C49U C85U C114G", "No"],
  ["G58U G69U C97A G120C", "Yes"],
  ["C11A G63U", "Yes"],
  ["G61A C101U", "Yes"],
  ["C13G G36U A37G C80U", "No"],
  ["C62A U133A", "Yes"],
  ["C11A C53G G60C G77C C86G", "No"],
  ["U7C G47A G69U C72A C102G", "No"],
  ["C8U C15G A46U G113A", "No"],
  ["A5U C13U U78G C82A C104U U109C", "No"],
  ["C80A A121G", "Yes"],
  ["C12A G45C G63U", "Yes"],
  ["A18C C62U", "Yes"],
  ["A50C U129A", "Yes"],
  ["G48U U81G A91G G117U A119U", "No"],
  ["G44C C114A", "Yes"],
  ["G45A G69U U78C U112C U129A", "Yes"],
  ["A46U G60C G93C G113C A121C", "No"]
]}
